Biological target: Metabotropic glutamate receptor 8 (Rattus norvegicus)
Assay: mGluR8 Gi/Go-coupled signaling modulation – cell-based, rat, thallium flux, HTS, primary screen (AID 488969)
Conditions: HEK293 rat mGluR8, GIRK (G protein-gated inwardly rectifying potassium channel) thallium flux, FluoZin2; at 10 µM; stronger effect = higher value; submaximal glutamate (EC20) added with thallium
Over roughly 110,000 compounds, “z-score” has its median near -0.1; the highest 2% begin near 2. Many of the other results were omitted from the sample, so the highest values are more common in it than they were.
assay readout: z-score

structure | assay readout | endpoint result
Cc1noc(NS(=O)(=O)c2ccc(NC(=O)CS(=O)(=O)c3ccccc3)cc2)c1C | z-score | 0.155
CCN(CC(=O)Nc1ccc(OC)c(OC)c1)S(=O)(=O)c1ccc(C)cc1 | z-score | 0.404
Cc1ccc(OCC(=O)Nc2ccc(S(=O)(=O)Nc3onc(C)c3C)cc2)cc1 | z-score | 0.0571
COc1cc(NC(=O)CS(=O)(=O)c2ccccc2)cc(OC)c1OC | z-score | 1.2
COC(=O)[C@H](CCSC)NC(=O)N1CCC(C)CC1 | z-score | 0.07
